# testTarget: CD28 (Homo sapiens, UniProt P10747)
# testDescription: Jurkat/IL2 + CHO/OKT3 +/- PD-L1 reporter assay: PD-L1-dependent CD28 costimulation
# Type: cell-based
# Parameters: host or cells: Jurkat cells expressing an IL-2-luciferase reporter
# settings: Table E12; Jurkat/IL2 + CHO/OKT3/PD-L1; 5.0 nM
Strictly below 2000 RLU in Relative Luciferase Units (RLU), CD80 Cone 5.0 nM: MET. Otherwise: NOT MET.

# molecule, qualitativeLabel
records = [
    ("Q27L/E35D/M47V/I61V/L85M (protein) VIHVTKEVKEVATLSCGHNVSVEELALTRIYWQKDKKMVLTMMSGDVNIWPEYKNRTIFDVTNNLSIVILALRPSDEGTYECVVMKYEKDAFKREHLAEVTLSVKAD", "MET"),
    ("E35D/M47V/I61V/L85M (protein) VIHVTKEVKEVATLSCGHNVSVEELAQTRIYWQKDKKMVLTMMSGDVNIWPEYKNRTIFDVTNNLSIVILALRPSDEGTYECVVMKYEKDAFKREHLAEVTLSVKAD", "MET"),
    ("E35D/L97R (protein) VIHVTKEVKEVATLSCGHNVSVEELAQTRIYWQKDKKMVLTMMSGDMNIWPEYKNRTIFDITNNLSIVILALRPSDEGTYECVVLKYEKDAFKREHRAEVTLSVKAD", "MET"),
    ("Q27H/E35D/M47I (protein) VIHVTKEVKEVATLSCGHNVSVEELAHTRIYWQKDKKMVLTMMSGDINIWPEYKNRTIFDITNNLSIVILALRPSDEGTYECVVLKYEKDAFKREHLAEVTLSVKAD", "MET"),
    ("E35D/D46E/A91G (protein) VIHVTKEVKEVATLSCGHNVSVEELAQTRIYWQKDKKMVLTMMSGEMNIWPEYKNRTIFDITNNLSIVILALRPSDEGTYECVVLKYEKDGFKREHLAEVTLSVKAD", "MET"),
    ("E35D/M47V/T62S/L85Q (protein) VIHVTKEVKEVATLSCGHNVSVEELAQTRIYWQKDKKMVLTMMSGDVNIWPEYKNRTIFDISNNLSIVILALRPSDEGTYECVVQKYEKDAFKREHLAEVTLSVKAD", "MET"),
    ("E35D/M47L/A71G/L85M (protein) VIHVTKEVKEVATLSCGHNVSVEELAQTRIYWQKDKKMVLTMMSGDLNIWPEYKNRTIFDITNNLSIVILGLRPSDEGTYECVVMKYEKDAFKREHLAEVTLSVKAD", "MET"),
    ("E35D/M47V/L85M/R94Q (protein) VIHVTKEVKEVATLSCGHNVSVEELAQTRIYWQKDKKMVLTMMSGDVNIWPEYKNRTIFDITNNLSIVILALRPSDEGTYECVVMKYEKDAFKQEHLAEVTLSVKAD", "MET"),
    ("H18Y/E35D/M47L/A71G/A91S (protein) VIHVTKEVKEVATLSCGYNVSVEELAQTRIYWQKDKKMVLTMMSGDLNIWPEYKNRTIFDITNNLSIVILGLRPSDEGTYECVVLKYEKDSFKREHLAEVTLSVKAD", "MET"),
    ("M47I/A71G (protein) VIHVTKEVKEVATLSCGHNVSVEELAQTRIYWQKEKKMVLTMMSGDINIWPEYKNRTIFDITNNLSIVILGLRPSDEGTYECVVLKYEKDAFKREHLAEVTLSVKAD", "MET"),
    ("E35D/M47I/N48K/I61F (protein) VIHVTKEVKEVATLSCGHNVSVEELAQTRIYWQKDKKMVLTMMSGDIKIWPEYKNRTIFDFTNNLSIVILALRPSDEGTYECVVLKYEKDAFKREHLAEVTLSVKAD", "NOT MET"),
    ("V22A/E35D/M47L/A71G (protein) VIHVTKEVKEVATLSCGHNVSAEELAQTRIYWQKDKKMVLTMMSGDLNIWPEYKNRTIFDITNNLSIVILGLRPSDEGTYECVVLKYEKDAFKREHLAEVTLSVKAD", "NOT MET"),
    ("E35D/D46E/M47I (protein) VIHVTKEVKEVATLSCGHNVSVEELAQTRIYWQKDKKMVLTMMSGEINIWPEYKNRTIFDITNNLSIVILALRPSDEGTYECVVLKYEKDAFKREHLAEVTLSVKAD", "MET"),
]
